# protocol.notes: yeast display, Sf9 membrane polyspecificity reagent, FACS + sequencing; frameworks hold sequencing errors
parameter.measured: polyreactivity (PSR sort gate)

Examples with answers:
[
  {
    "construct.sequence": "EEELVESGGGLVQPGGSLRLSCAASGSIFTHYSMGWYRQAPGKERELVAAISWSGGSTYYADSVKGRFTISRDNAKYTVSLQMNSLKAEDTAVYYCAAETYWGDDYWGQGTQVTVSS",
    "polyreactivity (PSR sort gate)": "high polyreactivity"
  },
  {
    "construct.sequence": "QVQLVESGGGLVQAGGSLRLSCAASGRTFDRNAMGWYRQAPGKERELVAAITSRGGRTYYADSVKGRFTISRDNAKNTVYLQMNSLKPEDTAVYYCNAARGWGYDSWGQGTQVTVSS",
    "polyreactivity (PSR sort gate)": "high polyreactivity"
  },
  {
    "construct.sequence": "QVQLVESGGGLVQAGGSLRLSCAASARTFYRYAMGWYRQAPGKERELVAAITRRSGNTYYADSVKGRFTISRDNAKNTVYLQMNSLKPEDTAVYYFNTVYPRRLIFGYWGQGTQVTVSS",
    "polyreactivity (PSR sort gate)": "high polyreactivity"
  },
  {
    "construct.sequence": "QVELVESGGGLVQAGGSLRLSCAASGSTFYYNAMGWYRQGPGTERELVAASTFTGGSTYADSVKGRFTISRDNAKNTVYLQMTSLKPEDTAVYYCAATIQRHDYLGTGYDYWGQGTQVTVSS",
    "polyreactivity (PSR sort gate)": "low polyreactivity"
  },
  {
    "construct.sequence": "QVQLVESGGGLVHAGGSLRLSCAACGRIFSRNAMGWYRQAPWKERELVAAITWRGGSTYYADSVKGRFTSSRDNAKNTVYLQMNSLKPEDTAVYYCNRDYRQYGYAYSGRFYWGHGTQVTVSS",
    "polyreactivity (PSR sort gate)": "high polyreactivity"
  },
  {
    "construct.sequence": "QVQLVESGGGLVQAGGSLRLICAASGSTFGPYDMGWYRQAPGKERELVADITSGGSTYYADSVKGRFTISRDNAKNTVYLQMNSLKPEDTAVYYCAADRVWPYYQYDYWGQGTQVTVSS",
    "polyreactivity (PSR sort gate)": "low polyreactivity"
  }
]

Shifting focus to the sequence that follows.
## Task Give recorded polyreactivity (PSR sort gate). QDQLVESGGGLVQAGGSLRLIFAASGSIFNGYAMGWSRQAPGKERELVADIRSGGSTYYADSVMGRFTISRDNAKNTVYLQMNSLKPEDTAVYYGAADTITDGYDYWGQGSQVTVSS
## Result low polyreactivity

----------
# protocol.notes: yeast display, Sf9 membrane polyspecificity reagent, FACS + sequencing; frameworks hold sequencing errors
parameter.measured: polyreactivity (PSR sort gate)

Sample answers from the record:
[
  {
    "construct.sequence": "QVQLVESGGGLVQAGGSLRLSCAASGFIFKYYTMGWYRQAPGKERELVAAISKNAGSTYYADSVKGRFTISRDNAKNTVYLQMNSLKPEDTAVYYCARTYSTWYYYWGQGTQVTVSS",
    "polyreactivity (PSR sort gate)": "high polyreactivity"
  },
  {
    "construct.sequence": "QVQLVESGGGLVQAGGSLRLSCAASGFTFRDNAMGWYRQAPGKERELVAAITWDGGSTYYADSVKGRFTISRDNAKNTVYLQMYSLKPEDTAVYYCAASRYYPRYFKRYYYWGQGTQVTVSS",
    "polyreactivity (PSR sort gate)": "high polyreactivity"
  },
  {
    "construct.sequence": "QVQLVESGGGLVQAGGSLRLSCAASGSIFKIYAMGWYRQAPGKERELVASITGSGGSTYYADSVKGRFTISRDNAKNTVYLQMNSLKPEDTAVYYCAADVVRSNFYGTFLYDYDYWGQGTQVTVSS",
    "polyreactivity (PSR sort gate)": "low polyreactivity"
  },
  {
    "construct.sequence": "QVQLVESGGGLVQAGGSLRLSCAASGSTFYLYGMGWYRQAPGKERELVAAITYSGGSTYYADSVKGRFTISRDNAKNTVYLQMNSLKPEDTAVYYCNARSQWRSSRFYYWGQGTQVTVPS",
    "polyreactivity (PSR sort gate)": "high polyreactivity"
  },
  {
    "construct.sequence": "QVQLVESGGGLVQAGGSLRLSCAASGFIFTDNAMGWYRQAPGKERELVAAISKNGGSTYYADSVKGRFTISRDNAKNTVYLQMNSLKPEDTAVYYCNTRRKNFDKSSQVEYWGQGTQVTVSS",
    "polyreactivity (PSR sort gate)": "high polyreactivity"
  },
  {
    "construct.sequence": "QVQLVESGGGLVQAGGSLRLSCAASGFTIDSYAMGWYRQAPGTERELVAAISYRGGTTYYADSVKGRFTISRDNAKNTVYLQMNSLKPEDTAVYYCNRMWKYGFNYWGQGTQVTVSA",
    "polyreactivity (PSR sort gate)": "high polyreactivity"
  }
]

## Task Answer with the recorded polyreactivity (PSR sort gate) for the sequence listed here: QVHLVESGGGLVQPGGSLRLSCAASGNTFQSYARGWYRQAPRKEREFVAAIRQSGGSTYYAESLKGRFTISRDNSKYSVYLLMKRLKPEDTAVYYCGTGRSRVYNGRGDYWGQGTQVNVSS
## Result high polyreactivity

## Task Determine its reported polyreactivity (PSR sort gate): QVQLVESGGGLVQAGGSLRLSCAASVRTFHYYAMGWYRQAPGKERELVAGITGGGSTYYADSVKGRFTISRDNAKNTVYLLMNSLKPEDTAVYYCADDRSYYGYGYCGQGTQVTVSS
## Result low polyreactivity

## Task Given the sequence QVQLVESGGGLVQAGGSLRLSCAASGSTFLHSAMGWYRQAPGKEREFTYYADSVKGRFTISRDNAKNTVYLQMHSLKPEDTAGYYCNAGPYWSPYGDDVGYWGQGTQVTVSS , write its reported polyreactivity (PSR sort gate).
## Result low polyreactivity

## Task Kindly indicate its recorded polyreactivity (PSR sort gate). Item: QVQLVESGGGLVQAGGSLRLSCAASGNTLRTYGMGWYRQAPGKEREFVAAITYSGGSTYYADSVKGRFTISRDNAKNTVYLQMNSLKPEDTAVYYCAARYRSHYRRITPYDSWGQGTQVTVSS
## Result high polyreactivity

## Task Read off the recorded polyreactivity (PSR sort gate) for QVQLVESGGGLVQAGGRLRLSCAASGSISVTKAMGWYRQAPGTERELVAAISGSGGSTYADSVKGRFTISRDNAKNTVYLQMNSLKPVDTAVYYCDRDRYYTREWYWYRHDHWGQGTQVTVSS
## Result low polyreactivity

----------
# protocol.notes: yeast display, Sf9 membrane polyspecificity reagent, FACS + sequencing; frameworks hold sequencing errors
parameter.measured: polyreactivity (PSR sort gate)

[
  {
    "construct.sequence": "QVQLVESGGGLVQAGGSLRLSCAASGSIFGDYAMSWYRQAPGKERELVATITWIGGSTYYADSVKGRFTISRDNAKNTVYLQMNSLKPADTAVYYCAIYMGSYRLDYWGQGPQVTVSS",
    "polyreactivity (PSR sort gate)": "low polyreactivity"
  },
  {
    "construct.sequence": "QVQLVESGGGLVQAGGSLPLSCAASGSIFVGYAMGWYRQAPGKERELVAAITNSGGRTYYADSVKGRFTISRDNAKNTVYLQMNSLKPEDTAVYYCNRVTGKYRYWVGFEYWGQGTQVTVSS",
    "polyreactivity (PSR sort gate)": "high polyreactivity"
  },
  {
    "construct.sequence": "QVQLVESGGGLVQAGGSLRLSCAASGRTFGQNAMGWYRQAPGKERELVAAISWRGARTFYADSVKGRFTISRDNAKNTVYLQMNSLKPEDTAVYYCAARYSAYRRNVAYDYWGQGTQVTVSS",
    "polyreactivity (PSR sort gate)": "high polyreactivity"
  },
  {
    "construct.sequence": "QVQLVESGGGLVQAGGSLRLSCASSGSIFRYNAMGWYRQAPGKEREFVAAISYSGGRTYYADSLKGRFTISRDNAKNNVYLQMNIQKPEDTAVYYCAARLKRPFSGYDNWGQGTQVSVSS",
    "polyreactivity (PSR sort gate)": "high polyreactivity"
  },
  {
    "construct.sequence": "QVQLVESGGGLVQAGGSLRLSCAGLRIYLPGYARGWYRQAPGKERELVAVISGSGSGTYYADSVKGRFTISRDNAKNTVYLQMNSLKPEDTAVYYCAADDVGRGSTPYDYWGQGTQVTVSS",
    "polyreactivity (PSR sort gate)": "high polyreactivity"
  }
]

Note: attention shifts to another entry.
## Task Item QVQLVESGGGLVQAGGSLRLSSAASGRTFTHYAMGWYSQAPGKERELGASISDGGRTHYADSVKGRFTISRDNAKNTVSLQMNSLKPVDPAVYYCATDRYPTRRYDYWGQGSQVTVSS : provide polyreactivity (PSR sort gate)
## Result low polyreactivity

----------
# protocol.notes: yeast display, Sf9 membrane polyspecificity reagent, FACS + sequencing; frameworks hold sequencing errors

[
  {
    "construct.sequence": "QVQLVESGGGLVQAGGSLRLSCAASGNIFYGYAMGWYRQAPGKERELVARINWSGSRTYYADSVKGRFTISRDNAKNSVYLQMNSLKPEDTAVYYCNTSTSRVPGNGDYWGQGTQVTVSS",
    "polyreactivity (PSR sort gate)": "high polyreactivity"
  },
  {
    "construct.sequence": "QVQLVESGGGLVQAGGSLRLSCAASGSTFFYNAMGWYRQAPGKERELVAAISWSGGRTYYADSVKGRFTISRDNAKNTVYLQMNSLKPEDTAVYYCNTVVSKYYKVGFGSWGHGTQVTVSS",
    "polyreactivity (PSR sort gate)": "high polyreactivity"
  }
]
